Tested on: NCI-H292
experiment.summary: Antiproliferative activity against human NCI-H292 cells assessed as cell growth inhibition incubated for 4 hrs by MTT assay
Type: functional, cell-based
run.parameters: NCI-H292, 4 h
experimental.endpoint: IC50

Measured IC50, COC1=C(C)C(=O)C2=C(C1=O)[C@@H]1[C@@H]3CC4=C(C(=O)C(OC)=C(C)C4=O)[C@H](COC(=O)CNC(=O)OC(C)(C)C)N3[C@@H](C#N)[C@H](C2)N1C : 3.56 nM
